Measured values drawn from patent US12606528B2 for this set.

# Test system: NF-κB
# EXPERIMENTAL PROTOCOL: NF-κB assay: THP1-NF-κB-LUC cells, LPS-stimulated secreted luciferase
# Assay type: cell-based
# CONDITION: THP1-NF-κB-LUC cells; compounds 2 hours before LPS (10 ng/mL) for 18 hours; secreted luciferase; read-out: IC50 (NF-κB assay)
Assign IC50 to each entry below.

Examples with their reported IC50 follow.
Query IC50 for `CS(=O)(=O)c1cc2c(c(S(=O)(=O)Nc3ccc(Cl)cc3)c1)OCC(=O)N2`
< 100 nM

Read the entry Cc1ccc(NS(=O)(=O)c2cc(Br)cc3c2OC(C)C(=O)N3C)cc1F (stereo not drawn) and write its reported IC50.
< 100 nM

Quote IC50 reported for `N#Cc1ccc2c(=O)c(S(=O)(=O)c3ccc(F)c(Cl)c3)c[nH]c2c1` please.
100 to 1000 nM

Output IC50 of `Cc1cc2c(cc1S(=O)(=O)Nc1ccc(C(C)C)cc1)OCCN2C`
1000 to 10000 nM

Using known records, supply IC50 for `Cc1ccc2[nH]cc(S(=O)(=O)c3ccc(C#N)cc3)c(=O)c2c1`
> 10000 nM

Give me IC50 for each of these molecules, listed below.
1. O=C1COc2c(cc(Cl)cc2S(=O)(=O)Nc2ccc(OC(F)(F)F)cc2)N1
2. CCC1Oc2c(cc(Br)cc2S(=O)(=O)Nc2ccc(Cl)cc2)NC1=O (stereo not drawn)

1: < 100 nM; 2: < 100 nM

For each of the molecules below, note its IC50.
1. COc1ccc(S(=O)(=O)c2cn(CC(=O)Nc3ccc(Cl)cc3)c3ccc(C)cc3c2=O)cc1
2. CCC1Oc2cc(S(=O)(=O)Nc3ccc(F)cc3Cl)c(Cl)cc2NC1=O (stereo not drawn)

1: > 10000 nM; 2: 1000 to 10000 nM
